Assay: fission yeast growth modulation, primary screen, strain 972, OD600, 24 h, no modulator (AID 1090);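 further: basal condition with compound alone and no growth modifier present; test concentration not given here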
Details: S. pombe 972 growth, higher = more signal, called active from +8 up or from −8 down
Listing: z-score of selected compounds
// return a plain number; no unit text

// solved cases for z-score follow
- Compound: "CCc1cc2c(nc1CC)CCN(CCC(C)=NO[C@@H](C)c1cc(-c3c(C)cc(C)cc3C)no1)C2"
  z-score: -6.86
- Compound: "O=C1[C@H]2[C@H]3[C@H](O)[C@H](O)CC(=NO[C@@H]4O[C@H](CO)[C@@H](O)[C@H](O)[C@H]4O)[C@H]3CC[C@H]2C(=O)N1C1CCCCC1"
  z-score: 0.506
- Compound: "CCc1cc2c(nc1CC)CCN(CCC(C)=NOC(C)CN1CCCc3nc(C)c(C)cc31)C2 (stereo not given)"
  z-score: -1.74
- Compound: "COC(=O)CC=C[C@@H](C)[C@@H](C=NO[C@@H](C)c1cc(-c2c(C)cc(C)cc2C)no1)OC"
  z-score: -0.875
- Compound: "CCOC(=O)CCN1C(=O)[C@H]2[C@H]3[C@H](O)[C@H](O)CC(=NOC[C@@H](O)COCc4ccco4)[C@H]3CC[C@H]2C1=O"
  z-score: -3.86
- Compound: "CC=CC1=C(CO)[C@H](O)[C@H]2O[C@H]2[C@H]1O"
  z-score: 0.317
- Compound: "COc1cccc([C@H]2Oc3ccc(OC)cc3C(=NO[C@H](C)c3cn([C@@H]4COC[C@H]4O)nn3)[C@@H]2O)c1"
  z-score: 0.874
- Compound: "COc1ccc([Si](C)(C)[C@@H]2[C@@H](CC(=O)N3CCC[C@H]3CO)O[C@]3(C(=O)N(Cc4cccc(N5CCC5=O)c4)c4ccccc43)[C@H]2C)cc1"
  z-score: -0.184

Please fill in: z-score reported for CO[C@H]1COC(=O)[C@H](C)NC(=O)[C@@H](C)COC(=O)CC=C[C@@H]1C = 0.473

Please fill in: z-score reported for C[C@@H]1C=CCC(=O)OC[C@H](C)C(=O)N[C@@H](C)C(=O)OC1 = 0.406

Please fill in: z-score reported for CCCNC(=O)OC[C@H]1O[C@H](CCON=CC[C@@H]2C=C[C@H](OC(C)=O)[C@@H](COC(C)=O)O2)C=C[C@@H]1Oc1ccc(OC)cc1 = 0.115

Please fill in: z-score reported for CN1C(=O)C2C(C1=O)C1C=C(CCCO)C2C(c2ccc(CN3CCCC3)cc2)N1C (stereo not given) = 0.652

Please fill in: z-score reported for O=C1[C@H]2[C@H]3[C@H](O)[C@H](O)CC(=NO[C@@H]4O[C@H](CO)[C@@H](O)[C@H](O)[C@H]4O)[C@@H]3CC[C@H]2C(=O)N1Cc1ccccc1 = -0.13

Please fill in: z-score reported for CC1CC/C=C\[C@H]2OC34C=CCN(C(C)C)C(=O)[C@H]3N(CCCO)C(=O)[C@@H]4C2C(=O)O1 (stereo not given in full) = -1.14

Please fill in: z-score reported for CO[C@H]1O[C@H](CO)[C@@H](OC(=O)Nc2ccc3c(c2)OCO3)[C@H](OC(=O)Nc2ccccc2-c2ccccc2)[C@@H]1OC(=O)Nc1ccccc1-c1ccccc1 = 1.8

====

Assay: MM1S myeloma cell viability, profiling panel, resazurin fluorescence, basal, 24 h, PK04 Diversity Set (AID 1174);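 further: MM1S multiple myeloma cell line; test concentration not given here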
Details: higher = more signal, called active from +8 up or from −8 down
Listing: z-score of selected compounds
// return a plain number; no unit text

// solved cases for z-score follow
- Compound structure string: "CC(=O)OC[C@H]1O[C@H](CC=NOC[C@@H](C)[C@H](OCc2ccccc2)C(C)C)C=C[C@@H]1OC(C)=O"
  z-score: -0.473
- Compound structure string: "CC(=O)OC[C@H]1O[C@H](CCON=C[C@@H](C)[C@H](OCc2ccccc2)C(C)C)C=C[C@@H]1OC(C)=O"
  z-score: -0.81

Please fill in: z-score reported for CC(=O)OC[C@H]1O[C@H](CCON=C(C)CCN2CCc3nc(-c4ccccc4)c(-c4ccccc4)cc3C2)C=C[C@@H]1OC(C)=O = -0.91

Please fill in: z-score reported for CC(C)(C)N1C(=O)[C@H]2[C@H]3[C@H](O)[C@H](O)CC(=NOCc4ccccc4)[C@@H]3CC[C@H]2C1=O = -0.637

====

Assay: mitochondrial membrane potential change in A549 cells, profiling panel, cell-based, JC-1 fluorescence, basal, 24 h, 100 nL (AID 1138);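 further: A549 lung adenocarcinoma cells under basal conditions with no added stimulus; test concentration not given here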
Details: higher = more signal
Class (required): determined from z-score; valid ranges are Low = under -0.03, Mid = from -0.03 up to 1, High = 1 and over

Example cases with answers are listed next.
- Molecule: "COC(=O)[C@H](C)NC(=O)CCC1CC(OC(=O)NCc2ccc3c(c2)OCO3)CC2(CCCC(COC(=O)NCCOc3ccccc3)O2)O1 (stereo not given in full)"
  Category: "High"
- Molecule: "COc1ccc([Si](C)(C)[C@H]2[C@H](CC(=O)N3CCC[C@H]3CO)O[C@@]3(C(=O)N(Cc4cccc(N5C(=O)COc6ccccc65)c4)c4ccccc43)[C@@H]2C)cc1"
  Category: "High"
- Molecule: "N#Cc1ccc(NN2C(C(O)c3cc(C(F)(F)F)cc(C(F)(F)F)c3)C=CC3C(=O)N(c4ccccc4)C(=O)C32)cc1 (stereo not given)"
  Category: "Mid"

Please let me know in which category the item CCCC=C(CCC)[C@@H](NC(=O)c1ccc(-c2ccccc2)cc1)c1ccc(C(=O)OC)cc1 belongs.
Low

Please let me know in which category the item COc1ccc(O[C@@H]2[C@H](O)CO[C@H]2C=CC#Cc2ccccc2)cc1 belongs.
Low

Please let me know in which category the item COC(=O)[C@@]1(Cc2ccccc2)[C@H]2c3cc(C(=O)N4CCCC4)n(Cc4ccccn4)c3C[C@H]2CN1C(=O)c1ccccc1 belongs.
Mid

Please let me know in which category the item N#Cc1ccc(NN2C(C(O)c3cccc4ccccc34)C=CC3C(=O)N(c4ccccc4)C(=O)C32)cc1 (stereo not given) belongs.
High

Please let me know in which category the item CCCC[C@H]1OB(O)C[C@H]2C1=C(C)C[C@H]1C(=O)N(C)C(=O)[C@H]12 belongs.
Mid

Please let me know in which category the item O=C1C[C@@H](O)[C@@H](O)[C@@H]2[C@@H]3C(=O)N(c4cccc(Oc5ccccc5)c4)C(=O)[C@@H]3CC[C@@H]12 belongs.
Mid

Please let me know in which category the item O=C1[C@H]2[C@H]3[C@H](O)[C@H](O)CC(=NO[C@@H]4O[C@H](CO)[C@@H](O)[C@H](O)[C@H]4O)[C@H]3CC[C@H]2C(=O)N1C1CCCCC1 belongs.
Mid

Please let me know in which category the item CO[C@H]1COC(=O)[C@@H]2CCCN2C(=O)CC=C[C@@H](C)[C@H](OC)COC(=O)CC=C[C@@H]1C belongs.
High

Please let me know in which category the item COCCNC(=O)OCC1CCCC2(CC(OC(=O)NCCc3ccc(F)cc3)CC(CCC(=O)N[C@@H](C)C(=O)OC)O2)O1 (stereo not given in full) belongs.
High

Please let me know in which category the item CO[C@@H]1COC(=O)[C@H](C)NC(=O)[C@@H](C)COC(=O)CCC[C@H]1C belongs.
Low

Please let me know in which category the item CCOC(=O)[C@H](Cc1ccccc1)NC(=O)CCC1CC(OC(=O)NCc2ccc3c(c2)OCO3)CC2(CCCC(COC(=O)NCc3cccc(C(F)(F)F)c3)O2)O1 (stereo not given in full) belongs.
Low

====

Assay: Plasmodium falciparum growth inhibition, primary screen, strain 3D7, DAPI fluorescence, 100 nL (AID 1184);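 further: parasites grown inside human red blood cells in medium with human serum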
Conditions: P. falciparum 3D7 growth, 3 d, higher = more signal
Binary call on z-score: label 1 from -0.5 upward, label 0 beneath that.

Example cases with answers are listed next.
- Compound structure string: "C#C[C@@H]1Oc2ccccc2S(=O)(=O)N2CCC[C@H]12"
  Category: "label 1"
- Compound structure string: "CC(CCC(=O)OC[C@H]1O[C@H](C#Cc2ccccc2)C=C[C@@H]1Oc1ccc(C)cc1)=NOC[C@@H](O)[C@H]1O[C@@H]2OC(C)(C)O[C@@H]2[C@H]1O"
  Category: "label 0"

Record COCCOC(=O)N1C(=O)[C@@]2(c3cc(C#CCNC(N)=O)ccc31)[C@H](c1ccc(O)cc1)N1[C@H](c3ccccc3)[C@H](c3ccccc3)OC(=O)[C@H]1[C@@H]2C(=O)N1CCCCCCC1 ; criterion: z-score no lower than -0.5. Met?
label 1

Record CO[C@H]([C@@H](C)[C@H](OC)c1ccccc1)[C@H](C)[C@@H](OC)[C@H](C)C(C)=O ; criterion: z-score no lower than -0.5. Met?
label 1

Record O=C1[C@H]2[C@H]3[C@H](O)[C@H](O)CC(=NOCc4ccccc4)[C@H]3CC[C@H]2C(=O)N1c1cccc(Oc2ccccc2)c1 ; criterion: z-score no lower than -0.5. Met?
label 0

Record CC(CCN1CCc2nc(-c3ccccc3)c(-c3ccccc3)cc2C1)=NOC[C@@H](C)[C@H](OCc1ccccc1)C(C)C ; criterion: z-score no lower than -0.5. Met?
label 0

FYI, the data here is from PubChem BioAssay.
